Data credit: patent US20260021103A1

- System: MOLM-13 cells
- protocol description: Cell viability assay in MOLM-13 cells
- Format: cell-based
- reported conditions: Homo sapiens, read-out: IC50 (cytotoxicity)
experimental readout: pIC50
Scale for pIC50: -log10 of concentration given in mol/L; no unit attached.

COc1ccc2cc(C(=O)Nc3ccc4c(c3)CN(C3CCC(=O)NC3=O)C4=O)ccc2c1 (centres unmarked); 8.22

Dear colleague, I am looking for the recorded pIC50 of the following compound: COc1cccc2c1OCC(C(=O)Nc1ccc3c(c1)CN(C1CCC(=O)NC1=O)C3=O)=C2 (centres unmarked) 8.40

* * *

- system name: IKZF2 (Homo sapiens, UniProt Q96SW2+Q9UKS7)
- Construct: expressed in transfected cells; host or cells: HEK293T (lentiviral transduction, puromycin selection, FACS sorting)
- Sequence (Q9UKS7 whole entry): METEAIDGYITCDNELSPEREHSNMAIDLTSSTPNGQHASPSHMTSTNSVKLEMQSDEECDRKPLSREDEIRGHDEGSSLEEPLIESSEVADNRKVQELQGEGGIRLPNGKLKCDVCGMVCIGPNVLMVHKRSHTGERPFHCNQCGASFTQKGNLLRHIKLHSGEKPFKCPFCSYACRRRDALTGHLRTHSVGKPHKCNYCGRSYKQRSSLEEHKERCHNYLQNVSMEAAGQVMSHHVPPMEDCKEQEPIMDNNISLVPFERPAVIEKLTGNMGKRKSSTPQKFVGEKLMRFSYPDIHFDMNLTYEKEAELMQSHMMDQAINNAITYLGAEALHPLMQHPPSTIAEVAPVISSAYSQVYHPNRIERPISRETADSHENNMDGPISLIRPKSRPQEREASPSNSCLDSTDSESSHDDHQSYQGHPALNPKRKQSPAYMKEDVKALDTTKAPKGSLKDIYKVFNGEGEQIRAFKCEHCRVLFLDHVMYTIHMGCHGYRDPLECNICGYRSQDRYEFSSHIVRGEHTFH
- Sequence (Q96SW2 whole entry): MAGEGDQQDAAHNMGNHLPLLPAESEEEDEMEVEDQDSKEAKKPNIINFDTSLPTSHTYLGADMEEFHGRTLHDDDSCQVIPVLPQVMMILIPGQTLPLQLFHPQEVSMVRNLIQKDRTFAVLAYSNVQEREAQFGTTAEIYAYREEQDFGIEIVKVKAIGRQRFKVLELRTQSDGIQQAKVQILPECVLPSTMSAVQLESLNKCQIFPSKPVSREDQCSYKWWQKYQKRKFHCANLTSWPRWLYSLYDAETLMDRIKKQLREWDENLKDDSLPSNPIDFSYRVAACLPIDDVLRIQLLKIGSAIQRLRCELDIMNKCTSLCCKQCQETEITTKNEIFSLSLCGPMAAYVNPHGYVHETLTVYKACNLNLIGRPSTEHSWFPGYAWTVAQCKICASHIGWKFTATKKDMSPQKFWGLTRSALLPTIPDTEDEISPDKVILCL
- Sequence (Q16531 whole entry partner): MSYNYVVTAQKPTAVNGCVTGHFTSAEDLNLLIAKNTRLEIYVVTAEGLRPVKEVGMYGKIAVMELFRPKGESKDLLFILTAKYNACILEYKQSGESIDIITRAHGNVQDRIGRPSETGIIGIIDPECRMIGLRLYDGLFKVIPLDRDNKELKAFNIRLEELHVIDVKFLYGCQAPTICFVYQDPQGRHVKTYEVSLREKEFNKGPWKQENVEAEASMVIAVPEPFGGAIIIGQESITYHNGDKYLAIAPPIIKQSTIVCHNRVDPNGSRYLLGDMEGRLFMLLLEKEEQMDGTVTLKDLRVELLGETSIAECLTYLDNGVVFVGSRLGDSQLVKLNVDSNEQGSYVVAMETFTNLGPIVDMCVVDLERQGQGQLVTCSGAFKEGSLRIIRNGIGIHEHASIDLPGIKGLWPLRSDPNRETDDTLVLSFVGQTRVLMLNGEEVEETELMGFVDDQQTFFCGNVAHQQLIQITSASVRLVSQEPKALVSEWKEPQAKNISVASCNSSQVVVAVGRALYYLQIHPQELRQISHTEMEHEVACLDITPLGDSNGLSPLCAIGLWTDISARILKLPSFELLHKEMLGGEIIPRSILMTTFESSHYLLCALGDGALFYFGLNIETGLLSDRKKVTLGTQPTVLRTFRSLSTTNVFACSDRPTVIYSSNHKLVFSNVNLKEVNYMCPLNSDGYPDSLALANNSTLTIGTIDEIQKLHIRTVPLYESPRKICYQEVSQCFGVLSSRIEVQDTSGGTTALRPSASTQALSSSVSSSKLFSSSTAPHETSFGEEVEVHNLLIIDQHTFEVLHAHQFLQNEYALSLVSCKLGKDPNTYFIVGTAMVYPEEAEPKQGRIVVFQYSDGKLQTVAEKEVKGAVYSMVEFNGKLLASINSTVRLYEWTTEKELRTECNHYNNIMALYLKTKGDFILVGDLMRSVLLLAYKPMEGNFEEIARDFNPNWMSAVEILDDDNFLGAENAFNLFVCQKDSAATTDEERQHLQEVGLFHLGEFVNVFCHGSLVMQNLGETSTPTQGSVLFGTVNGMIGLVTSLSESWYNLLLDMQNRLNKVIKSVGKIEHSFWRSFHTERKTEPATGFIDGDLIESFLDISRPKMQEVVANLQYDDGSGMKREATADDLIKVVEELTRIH
- protocol description: Flow cytometry for measuring degradation, HEK293T GFP-POI reporter cells (IKZF2)
- Format: cell-based
- reported conditions: 1 μM, 24 h, HEK293T GFP reporter
Entries and their IKZF2% degradation at 1 μM
Give just the number in %; leave the unit off.

O=C1CCC(N2Cc3cc(NC(=O)c4ccc5c(c4)OCCO5)ccc3C2=O)C(=O)N1 (centres unmarked) [DEG-53]; 76.5
O=C1CCC(N2Cc3cc(NC(=O)c4cc5ccccc5o4)ccc3C2=O)C(=O)N1 (centres unmarked) [DEG-59]; 92

Form field: reported IKZF2% degradation at 1 μM of O=C1CCC(N2Cc3cc(NC(=O)C4=Cc5cc(Br)cc(Br)c5OC4)ccc3C2=O)C(=O)N1 (centres unmarked) [DEG-86] 62.6

# input compound: O=C1CCC(N2Cc3cc(NC(=O)c4ccc(Oc5ccccc5)cc4)ccc3C2=O)C(=O)N1 (centres unmarked) [DEG-61] ; wanted: its IKZF2% degradation at 1 μM 91.4

I'd like to know its IKZF2% degradation at 1 μM. The compound in question is CSc1ccc2cc(C(=O)Nc3ccc4c(c3)CN(C3CCC(=O)NC3=O)C4=O)ccc2c1 (centres unmarked) [DEG-95] 94.1

Please give the measured IKZF2% degradation at 1 μM for this compound: COc1cc(C(=O)Nc2ccc3c(c2)CN(C2CCC(=O)NC2=O)C3=O)ccc1Oc1ccccc1 (centres unmarked) [DEG-76] 92.8

I would be grateful if you could share the reported IKZF2% degradation at 1 μM for COc1cc(Oc2ccccc2)ccc1C(=O)Nc1ccc2c(c1)CN(C1CCC(=O)NC1=O)C2=O (centres unmarked) [DEG-75] . 83.3

Need IKZF2% degradation at 1 μM of CC(=O)Nc1ccc2c(c1)CN(C1CCC(=O)NC1=O)C2=O (centres unmarked) [DEG-66] , thanks. 48.5

Please give the measured IKZF2% degradation at 1 μM for this compound: COc1ccc2c(c1)OCC(C(=O)Nc1ccc3c(c1)CN(C1CCC(=O)NC1=O)C3=O)=C2 (centres unmarked) [DEG-74] 96

So what's the measured IKZF2% degradation at 1 μM for this one? O=C1CCC(N2Cc3cc(NC(=O)C4=Cc5ccc(Br)cc5OC4)ccc3C2=O)C(=O)N1 (centres unmarked) [DEG-83] 94.4

Item under review: COc1ccc(/C=C/C(=O)Nc2ccc3c(c2)CN(C2CCC(=O)NC2=O)C3=O)cc1 (centres unmarked) [DEG-60] . Reported IKZF2% degradation at 1 μM? 89.5

Dear colleague, I am looking for the recorded IKZF2% degradation at 1 μM of the following compound: O=C1CCC(N2Cc3cc(NC(=O)c4ccc5c(c4)OCO5)ccc3C2=O)C(=O)N1 (centres unmarked) [DEG-54] 84.1

Name the recorded IKZF2% degradation at 1 μM for C[C@H](NC(=O)c1ccccc1)C(=O)Nc1ccc2c(c1)CN(C1CCC(=O)NC1=O)C2=O (some centres unmarked) [DEG-98] . 68.1

Which IKZF2% degradation at 1 μM reading was recorded for the compound O=C(/C=C/c1ccccc1)Nc1ccc2c(c1)CN(C1CCC(=O)NC1=O)C2=O (centres unmarked) [DEG-56] ? 89.6

Would you kindly share the measured IKZF2% degradation at 1 μM for CN1C(=O)COc2cc(C(=O)Nc3ccc4c(c3)CN(C3CCC(=O)NC3=O)C4=O)ccc21 (centres unmarked) [DEG-94] ? 85.2

# query: IKZF2% degradation at 1 μM of entry COc1ccc2cccc(CC(=O)Nc3ccc4c(c3)CN(C3CCC(=O)NC3=O)C4=O)c2c1 (centres unmarked) [DEG-68] 94.4

I would be grateful if you could share the reported IKZF2% degradation at 1 μM for CC(=O)N1CCC[C@H]1C(=O)Nc1ccc2c(c1)CN(C1CCC(=O)NC1=O)C2=O (some centres unmarked) [DEG-96] . 57.0
